Molecular target: full-length Akt (Homo sapiens, UniProt P31749)
Construct: purchased Millipore
Sequence (P31749 whole entry): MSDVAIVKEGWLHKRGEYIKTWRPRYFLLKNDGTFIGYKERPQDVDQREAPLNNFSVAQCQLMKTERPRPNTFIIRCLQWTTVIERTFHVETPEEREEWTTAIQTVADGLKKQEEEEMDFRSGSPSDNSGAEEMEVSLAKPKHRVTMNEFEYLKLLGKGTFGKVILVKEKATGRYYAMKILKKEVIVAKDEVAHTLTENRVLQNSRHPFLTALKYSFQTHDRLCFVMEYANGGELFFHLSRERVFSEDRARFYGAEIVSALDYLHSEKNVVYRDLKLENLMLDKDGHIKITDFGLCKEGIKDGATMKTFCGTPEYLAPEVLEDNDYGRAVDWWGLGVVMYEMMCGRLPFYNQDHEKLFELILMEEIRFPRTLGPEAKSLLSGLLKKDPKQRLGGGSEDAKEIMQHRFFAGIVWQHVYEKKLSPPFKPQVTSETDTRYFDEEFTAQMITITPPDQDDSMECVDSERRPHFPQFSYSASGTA
Assay: Microscale thermophoresis
Type: binding
Settings: full-length Akt regardless of the activation status; read-out: Kd values
Method: Using 0.1 M Tris-HCl buffer (pH 7.2) containing 0.05% Tween-20, a 1:1 serial dilution was prepared for G7 to yield 16 working solutions, with the highest concentration being 200 µM. Each of these G7 solutions was mixed with 1 µM of purified Akt sample prepared in the same 0.05% Tween-20 Tris-HCl buffer. […] After 15-min incubation the samples were centrifuged at 14,000 g at 4 °C before loading into premium coated capillaries (NanoTemper Tech.) for MST measurements. […]
Measure: Kd

Need Kd of Oc1cc(-c2ccccc2)c2ccccc2n1 , thanks.
4 to 6 µM

* * *

Molecular target: full-length Akt (Homo sapiens)
Construct: purchased Millipore
Experiment: Microscale thermophoresis
Assay type: binding
Settings: active Akt; read-out: Kd
Measure: Kd (µM)
Numbers only, in µM.

Short answer please: Kd, full-length Akt (Homo sapiens), entry Oc1cc(-c2ccccc2)c2ccccc2n1
6.3

* * *

Test system: Akt S473 phosphorylation
Test: pS473-Akt HTRF assay
Type: cell-based, Mouse
Settings: Mus musculus, N2a, Neuro 2A cells, inhibitor 15 min before IGF; read-out: IC50
Measure: IC50 (µM)
Answers are plain numbers, in µM.

Short answer please: IC50, Akt S473 phosphorylation, entry O=c1cc(N2CCOCC2)oc2c(-c3ccccc3)cccc12
25

* * *

Molecular target: Akt PH domain (Homo sapiens, UniProt P31749)
Construct: The Akt samples tested include recombinant Akt PH domain
Experiment: Microscale thermophoresis
Settings: recombinant Akt PH domain
Measure: Kd (µM)
One number for each entry, in µM.

Need Kd of Oc1cc(-c2ccccc2)c2ccccc2n1 , thanks.
8

* * *

Molecular target: full-length Akt (Homo sapiens, UniProt P31749)
Construct: purchased Millipore
Test: Microscale thermophoresis
Type: binding
Conditions: inactive Akt; read-out: Kd
Measure: pKd
Give bare numbers, as −log10 of the molar value.

Need pKd of Oc1cc(-c2ccccc2)c2ccccc2n1 , thanks.
5.43

Cited source for all entries: paper PMC5601486
